# reported MFC; entries follow
test system: Geotrichum; assay: Antifungal activity against Geotrichum species after 48 hrs by CLSI M27A3 broth microdilution method; format: functional
Dear colleague, please return just the value in µg/mL, with no unit written.

Some compounds with known MFC results, for comparison:
| Compound | Study Target | Observable | Val |
| --- | --- | --- | --- |
| O=C1CSC(c2ccccc2Cl)N1CCN1CCCCC1 (configuration not stated) | Geotrichum | MFC | 50 |
| O=C1CSC(c2cccc([N+](=O)[O-])c2)N1CCN1CCCCC1 (configuration not stated) | Geotrichum | MFC | 100 |
| O=C1CSC(c2c(Cl)cccc2Cl)N1CCN1CCCCC1 (configuration not stated) | Geotrichum | MFC | 50 |

Task item: Give reported MFC value for O=C1CSC(c2ccc(O)cc2)N1CCN1CCCCC1 (configuration not stated)
Reply: 50

Task item: Find the measured MFC of COc1ccccc1C1SCC(=O)N1CCN1CCCCC1 (configuration not stated) and report it.
Reply: 41.5

Task item: Determine from records and report MFC for O=C1CSC(c2ccc(Cl)cc2)N1CCN1CCCCC1 (configuration not stated)
Reply: 50

Task item: Complete the entry with MFC for O=C1CSC(c2cccc(Cl)c2)N1CCN1CCCCC1 (configuration not stated)
Reply: 50

Task item: Supply reported MFC belonging to this compound: Cc1ccc(C2SCC(=O)N2CCN2CCCCC2)cc1 (configuration not stated)
Reply: 100

====

system: Vero; experiment: Cytotoxicity against African green monkey Vero cells at 3150 ug/mL by neutral red dye uptake assay relative to control; format: cell-based; settings: chlorocebus sabaeus
Observable: Cell viability (%)
Record the value in %, omitting the unit from your answer.

Reference set, count: 3
| Molecule | Reading Unit | Val |
| --- | --- | --- |
| O=C1CSC(c2ccc(O)cc2)N1CCN1CCCCC1 (centres undefined) | % | 10 |
| O=C1CSC(c2ccccc2F)N1CCN1CCCCC1 (centres undefined) | % | 10 |
| COc1cccc(C2SCC(=O)N2CCN2CCCCC2)c1 (centres undefined) | % | 6 |

Next up:
Task item: Write down measured Cell viability (Vero) for this molecule. O=C1CSC(c2ccccc2Cl)N1CCN1CCCCC1 (centres undefined)
Reply: 22

====

Cell viability values, listed per item
system: Vero; experiment: Cytotoxicity against African green monkey Vero cells at 197 ug/mL by neutral red dye uptake assay relative to control; format: cell-based; settings: chlorocebus sabaeus
API: value field is a number in %; no unit string.

Record excerpt, results attached:
| Compound | Study Target | Reading Unit | Val |
| --- | --- | --- | --- |
| O=C1CSC(c2c(Cl)cccc2Cl)N1CCN1CCCCC1 (stereo unspecified) | Vero | % | 75 |
| COc1cccc(C2SCC(=O)N2CCN2CCCCC2)c1 (stereo unspecified) | Vero | % | 66 |
| O=C1CSC(c2ccc(F)cc2)N1CCN1CCCCC1 (stereo unspecified) | Vero | % | 73 |
| O=C1CSC(c2ccc(Cl)cc2)N1CCN1CCCCC1 (stereo unspecified) | Vero | % | 68 |
| O=C1CSC(c2ccc([N+](=O)[O-])cc2)N1CCN1CCCCC1 (stereo unspecified) | Vero | % | 72 |

Next, consider the following compound.
Task item: Using known records, supply Cell viability for O=C1CSC(c2cccc(F)c2)N1CCN1CCCCC1 (stereo unspecified)
Reply: 84
